METHOD SUMMARY: Partition (P) and distribution (D) coefficient, shake-flask octan-1-ol/water or PBS
STATED CONDITIONS: octan-1-ol/water
ASSAY ENDPOINT: logP at 0.5 h
Numbers only.

Requested field: logP at 0.5 h. Item: NNC(=O)c1ccncc1 [4 (INH), pyridine-4-carbohydrazide, reference compound]
-1

Reference for the values: paper PMC7765321
